Test system: DMS 114 small cell lung
protocol details: NCI tumour cell line growth inhibition, 48 h
Recorded TGI, one value per entry.
attribute measured: TGI

compound | reported result
CCOC(=O)c1sc2c(sc(=O)n2-c2ccccc2)c1O | > 100 µM
CC(C)Cn1cnc2c(Sc3c([N+](=O)[O-])ncn3C)nc(N)nc21 | > 100 µM
C[C@]12CC[C@H](OC3CCCCO3)CC1=CC[C@@H]1C2CC[C@]2(C)/C(=N/OCCC#N)CCC12 (stereo partly specified) | > 100 µM
C#CCC(O)c1ccccc1C(O)CC#C (stereo unspecified) | > 100 µM
CCN(C(C)=N)c1ccccc1 | > 100 µM
COc1nc(=O)cc(N)n1C1OC(CO)C(O)C1O (stereo unspecified) | > 100 µM
COc1ccc(NC(=O)CC(=O)n2nc(-c3ccccc3)c(N=Nc3ccccc3C(=O)O)c2-c2ccccc2)cc1 | > 100 µM
COc1cc2c[n+](C)c3c4cc(OC)c(OC)cc4c(OCCCCCCCCOc4cc5c6cc(OC)c(OC)cc6c[n+](C)c5c5cc(OC)c(OC)cc45)cc3c2cc1OC | > 100 µM
C/C(=N/NC(=O)c1ccccc1O)c1ccc(/C(C)=N\NC(=O)c2ccccc2O)c2nc3cc(C)c(C)cc3nc12 | > 100 µM
COC(=O)C1CC2c3c(c4ccccc4n3C)CC(C1=O)N2C (stereo unspecified) | 60.7 µM
COc1ccc(SS(=O)(=O)c2ccc(OC)cc2)cc1 | 30.6 µM
COCOCCCCCO[Si](C)(C)C(C)(C)C | 35.9 µM
CCOC(=O)COc1ccc(OC)c2c1C(=O)CCC2 | > 100 µM
O=C1c2ccccc2C(=O)c2[nH]c(Cc3ccccc3F)nc21 | > 100 µM
OC1CC1Sc1ccccc1 (stereo unspecified) | 74.4 µM
Cc1ccc(NC(=O)CC(=O)n2nc(-c3ccccc3)c(N=Nc3ccccc3[N+](=O)[O-])c2-c2ccccc2)cc1 | > 100 µM

# credit: PubChem BioAssay (NCI)
